tested on: HeLa; test: Concentration required to inhibit growth of human cervical HeLa carcinoma cell line; assay type: functional, cell-based; conditions: Homo sapiens, HeLa
pIC50: −log10 of the molar value.
Mark class 1 for reported pIC50 of 8 or greater; mark class 0 for anything smaller.

## Input Identify whether the reported pIC50 of the following compound is 8 or greater: `CC[C@@]1(O)C(=O)OCc2c1cc1n(c2=O)Cc2c-1nc1ccccc1c2Cc1ccccc1`
## Output class 0

## Input Continue with `CC[C@@]1(O)C(=O)OCc2c1cc1n(c2=O)Cc2c-1nc1ccccc1c2C(C)(C)C`
## Output class 0

## Input Field entry: `CC[C@@]1(O)C(=O)OCc2c1cc1n(c2=O)Cc2c-1nc1cc3c(cc1c2-c1ccc(C)cc1)OCO3`
## Output class 1

## Input How about this compound: `CC[C@@]1(O)C(=O)OCc2c1cc1n(c2=O)Cc2c-1nc1cc3c(cc1c2-c1ccc(Cl)cc1)OCO3`
## Output class 0

## Input Check CC[C@@]1(O)C(=O)OCc2c1cc1n(c2=O)Cc2cc3ccccc3nc2-1 [CAMPTOTHECIN] too.
## Output class 0

## Input What about this compound? CCc1c2c(nc3ccc(O)cc13)-c1cc3c(c(=O)n1C2)COC(=O)[C@]3(O)CC (stereo in doubt; form 1) [7-ETHYL-10-HYDROXYCAMPTOTHECIN]
## Output class 0

###

test system: HeLa; test: Concentration required to inhibit growth of human cervical HeLa carcinoma cell line; assay type: functional, cell-based; details: Homo sapiens, HeLa
EXPERIMENTAL_READOUT: IC50 (nM)
Give a bare numeral; the unit nM is implied.

## Input # get_value(readout='IC50', item= `CCCCc1c2c(nc3ccccc13)-c1cc3c(c(=O)n1C2)COC(=O)[C@]3(O)CC` )
## Output 37.3

## Input And the next one, `CC[C@@]1(O)C(=O)OCc2c1cc1n(c2=O)Cc2c-1nc1cc3c(cc1c2-c1ccccc1)OCO3` ?
## Output 8.1

## Input Moving on to `CC[C@@]1(O)C(=O)OCc2c1cc1n(c2=O)Cc2c-1nc1cc3c(cc1c2Cc1ccccc1)OCO3`
## Output 20.5

## Input Another compound: `CC[C@@]1(O)C(=O)OCc2c1cc1n(c2=O)Cc2c-1nc1cc3c(cc1c2-c1ccc(C(F)(F)F)cc1)OCO3`
## Output 6.9

###

target: DNA topoisomerase 1 (Homo sapiens) (UniProt P11387); test: Stability constant for DNA topoisomerase I complex in competitive DNA assay
Sequence (P11387 whole entry): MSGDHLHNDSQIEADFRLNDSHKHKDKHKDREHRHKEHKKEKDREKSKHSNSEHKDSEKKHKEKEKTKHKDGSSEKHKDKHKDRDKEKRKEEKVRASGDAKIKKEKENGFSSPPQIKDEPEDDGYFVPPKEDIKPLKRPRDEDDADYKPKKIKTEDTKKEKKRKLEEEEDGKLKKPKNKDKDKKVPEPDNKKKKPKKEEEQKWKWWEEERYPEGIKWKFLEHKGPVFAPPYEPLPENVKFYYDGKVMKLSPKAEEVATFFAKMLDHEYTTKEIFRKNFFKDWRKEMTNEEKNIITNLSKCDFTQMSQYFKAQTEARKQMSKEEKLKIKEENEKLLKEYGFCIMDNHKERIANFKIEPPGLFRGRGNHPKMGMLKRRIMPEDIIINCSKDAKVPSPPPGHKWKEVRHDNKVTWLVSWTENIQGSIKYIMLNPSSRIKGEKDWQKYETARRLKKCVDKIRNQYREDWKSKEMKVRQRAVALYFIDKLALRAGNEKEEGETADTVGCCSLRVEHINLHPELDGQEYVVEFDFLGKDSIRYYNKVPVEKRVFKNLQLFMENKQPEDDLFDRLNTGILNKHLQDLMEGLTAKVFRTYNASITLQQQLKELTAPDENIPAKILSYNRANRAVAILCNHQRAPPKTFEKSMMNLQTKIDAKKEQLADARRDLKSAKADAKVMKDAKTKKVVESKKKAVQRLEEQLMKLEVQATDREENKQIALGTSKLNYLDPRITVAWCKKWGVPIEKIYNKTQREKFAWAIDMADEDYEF
EXPERIMENTAL_READOUT: log10 K app (log10 of the value in min⁻¹)
Please note: log10 values; quantity K app; unit min⁻¹.

## Input Fill in the blank: the reported log10 K app of `CC[C@@]1(O)C(=O)OCc2c1cc1n(c2=O)Cc2c-1nc1cc3c(cc1c2C1CCCCC1)OCO3` is ____.
## Output -1.52

## Input Field entry: `CC[C@@]1(O)C(=O)OCc2c1cc1n(c2=O)Cc2c-1nc1ccccc1c2C(C)(C)C`
## Output -0.59

## Input And what about the compound `CC[C@@]1(O)C(=O)OCc2c1cc1n(c2=O)Cc2c-1nc1cc3c(cc1c2-c1ccc(C)cc1)OCO3` ?
## Output -2.30

## Input Same thing, different compound: `CC[C@@]1(O)C(=O)OCc2c1cc1n(c2=O)Cc2c-1nc1cc3c(cc1c2Cc1ccccc1)OCO3`
## Output -1.30

## Input Do the same for `CC[C@@]1(O)C(=O)OCc2c1cc1n(c2=O)Cc2c-1nc1cc3c(cc1c2-c1ccc(C(F)(F)F)cc1)OCO3` please
## Output -2.15

## Input Item: `CC[C@@]1(O)C(=O)OCc2c1cc1n(c2=O)Cc2c-1nc1cc3c(cc1c2-c1ccccc1)OCO3`
## Output -2.30

## Input Again, but for CCc1c2c(nc3ccc(O)cc13)-c1cc3c(c(=O)n1C2)COC(=O)[C@]3(O)CC (stereo in doubt; form 2)
## Output -0.92

## Input Now try `CC[C@@]1(O)C(=O)OCc2c1cc1n(c2=O)Cc2c-1nc1cc3c(cc1c2C1CCCC1)OCO3` .
## Output -1.70

## Input Can you handle `CC[C@@]1(O)C(=O)OCc2c1cc1n(c2=O)Cc2c-1nc1cc3c(cc1c2-c1ccc(Cl)cc1)OCO3` next?
## Output -2.10

## Input Now the compound `CCc1c2c(nc3cc4c(cc13)OCO4)-c1cc3c(c(=O)n1C2)COC(=O)[C@]3(O)CC`
## Output -1.52

## Input Same for `CCCCc1c2c(nc3ccccc13)-c1cc3c(c(=O)n1C2)COC(=O)[C@]3(O)CC`
## Output -1.30

## Input Another compound: `CC[C@@]1(O)C(=O)OCc2c1cc1n(c2=O)Cc2c-1nc1ccccc1c2CC(C)C`
## Output -0.96

## Input Would you mind doing `CC[C@@]1(O)C(=O)OCc2c1cc1n(c2=O)Cc2cc3cc4c(cc3nc2-1)OCO4` as well?
## Output -1.30

## Input Also check `CC[C@@]1(O)C(=O)OCc2c1cc1n(c2=O)Cc2c-1nc1ccccc1c2Cc1ccccc1`
## Output -0.62

## Input What do we get for `CC[C@@]1(O)C(=O)OCc2c1cc1n(c2=O)Cc2c-1nc1cc3c(cc1c2-c1ccc(F)cc1)OCO3` ?
## Output -2.40

## Input Next: CCc1c2c(nc3ccc(O)cc13)-c1cc3c(c(=O)n1C2)COC(=O)[C@]3(O)CC (stereo in doubt; form 1)
## Output -1.22

## Input Param item: `CC[C@@]1(O)C(=O)OCc2c1cc1n(c2=O)Cc2cc3ccccc3nc2-1`
## Output -0.85
